system: Saccharomyces cerevisiae; assay: protein stability index of tFT-peptide fusion (C-terminal peptide) (PSI (0-1 scale)); higher = more stable (slower turnover); settings: genetic background: wild type; temperature: 30 C
measurementKind: protein stability index
Give bare numbers.

• SVGLPPPPPFPP = 0.629
• PAFGLSPPSFST = 0.728
• SPRPPPLIIAST = 0.664
• RPLTSVTPLPTL = 0.699
• GVRLRNLTIITI = 0.697

// input: 2 sequences below; output: protein stability index for each
1. VVVGVGGCVDMG
2. SCVLSYVASYAQ

1: 0.676; 2: 0.66

// input: 5 sequences below; output: protein stability index for each
1. HLPRHVSLLGPP
2. KFNNIQNWRLAY
3. ADTIKRTKRSYP
4. GGNMPNNCWSRI
5. PPPPDHPRSSPV

0.671
0.787
0.643
0.698
0.688

// input: 7 sequences below; output: protein stability index for each
1. YYVIFHLFSFLI
2. TTQPQVGHHRTS
3. PAVAPRSTYAWH
4. AGHGTHSNSPFA
5. GGSTAKGRPMDT
6. DETRQTYRNRKG
7. APSPPPRISAWL

1: 0.392; 2: 0.715; 3: 0.696; 4: 0.693; 5: 0.645; 6: 0.728; 7: 0.749

// input: 4 sequences below; output: protein stability index for each
1. STPPGTPGISRQ
2. LFHFPSWIFCLL
3. SGASFLKVGLSV
4. LPLRVPPPPSSH

0.723
0.331
0.681
0.743

// input: 2 sequences below; output: protein stability index for each
1. GRAGQPCEGALP
2. SPTAPPPRPFPP

0.652
0.679

// input: 5 sequences below; output: protein stability index for each
1. PAPRFPFLFHPL
2. HDETKAYLAPGQ
3. GPFPPCVVPSSS
4. ERSVSDSHERID
5. VCAVPSILPPPP

[0.776, 0.697, 0.643, 0.678, 0.69]

// input: 7 sequences below; output: protein stability index for each
1. ERRKKKRGQETQ
2. RGVAGSTLGLRI
3. KDKGEKEKRRTK
4. MLRMSVSRGGLL
5. FHARVEKQFMVM
6. RGWDEHRVGSEY
7. LRRRGHCLRGEL

1. 0.655
2. 0.566
3. 0.719
4. 0.729
5. 0.489
6. 0.671
7. 0.631

// input: 4 sequences below; output: protein stability index for each
1. VVGRCVWRGMGG
2. WRRGIRAKIDSI
3. LIARYTFLFCLC
4. SPALSPDPSPSP

[0.688, 0.678, 0.444, 0.704]

* * *

test system: Saccharomyces cerevisiae; experiment: protein stability index of tFT-peptide fusion (C-terminal peptide) (PSI (0-1 scale)); higher = more stable (slower turnover); conditions: genetic background: wild type; temperature: 30 C;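 note: PSI is a weighted mean of sequencing reads over stability bins, variants kept only with over 10 reads, mCherry proximal and sfGFP distal, peptide attached via GGGS linker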
For each of the sequences below, state its protein stability index.
One number for each entry.

- MGGRAEGWVPVP: 0.68
- GFYPGRSKGCLG: 0.73
- GRCLSGRVVGGG: 0.714
- FRRCLCSLSLTS: 0.631
- SLLTSSPLPSPP: 0.696
- PSPPFFLTAASL: 0.668
- DTWRADKRGMKV: 0.662
- PSPSRAPPMAPS: 0.698
- VPRRSLLSPPPP: 0.668
- SPRPYFSLVLFF: 0.539

// input: 6 sequences below; output: protein stability index for each
1. CARSFGLFGTAT
2. TPSLLSPPLSLA
3. SFRIWLFRFFFV
4. KKLNTYISQIEQ
5. PTHCWSGLSGKG
6. RVLSLLGCFVVF

0.694
0.704
0.407
0.707
0.703
0.465

// input: 2 sequences below; output: protein stability index for each
1. GWCLLRVLVLVW
2. IGILVTAVPVFD

[0.175, 0.451]

# sequence RLIQPLPVQFLN ; its protein stability index = 0.0935

This collection of values is drawn from the supplement of paper PMC10724198.
